- Tested on: UACC-62 melanoma
- test description: NCI-60 one-dose screen, 48 h
- measurement conditions: 10 µM unless noted
Compounds without any hit were thinned out: in the full panel of roughly 83,000, 20% have a hit. The source made the active and inactive calls. How the source made its calls: active means growth percent below 10; inactive means the rest.
// allowed return values: active, inactive

Examples with answers:
Input line: For CC(=O)C(N)Cc1ccccc1 (stereo not given) , what call appears in the results of this test?
Output line: inactive

Input line: For CC[C@H](C)[C@H](NC(=O)[C@H]1CCCCN1C)C(=O)N(C)[C@H](C[C@@H](OC(C)=O)c1nc(C(=O)N[C@@H](Cc2ccccc2)C[C@H](C)C(=O)O)cs1)C(C)C , what call appears in the results of this test?
Output line: inactive

Input line: For C[C@]12CCC(=O)C[C@@H]1CC[C@@H]1[C@@H]2CC[C@]2(C)[C@@H](OC(=O)N(CCCl)N=O)CC[C@@H]12 , what call appears in the results of this test?
Output line: inactive

Continuing:
Input line: For Cc1cc[c-]cc1.Fc1c[c-]c(-c2ccccn2)c(F)c1.[Pt+2].c1ccc([PH+](c2ccccc2)c2ccccn2)cc1 , what call appears in the results of this test?
Output line: inactive
